run_description: In Vitro Stability Assay—Mouse Plasma
Assay type: in vitro ADME
measurement_parameters: attachment position L11B; before plasma incubation
*1 amine or outer side, *2 acyl side, *3 side chain or, on linkers, in order; H or OH if unused. Where a SMILES comes first, the peptide text is derived from it. [ ]: non-standard residue; d: D form. The star is where a group is joined. Dolaproine = CO[C@@H]([C@@H]1CCCN1)[C@@H](C)C(=O)O; Dil = CC[C@H](C)[C@H](NC)[C@@H](CC(=O)O)OC; Benzenesulfonyl = O=S(=O)(c1ccccc1)*; PABC = O=C(OCc1ccc(N[*:1])cc1)[*:2]; Doe = c1ccc(C[C@H](N*)c2nccs2)cc1; Cit = NC(=O)NCCC[C@H](N)C(=O)O; X1 = NCCOCCOCCOCCOCCOCC*; dLac = C[C@@H](O)C(=O)O; Aib = CC(C)(N)C(=O)O; Ms = CS(=O)(=O)*
Form field: DAR (one value per entry).
Number, no unit, nothing else.

Please review the entries below; each comes with its answer.
CC[C@H](C)[C@@H]([C@@H](CC(=O)N1CCC[C@H]1[C@H](OC)[C@@H](C)C(=O)N[C@@H](Cc1ccccc1)c1nccs1)OC)N(C)C(=O)[C@@H](NC(=O)C(C)(C)NC(=O)OCc1ccc(NC(=O)[C@H](CCCNC(N)=O)NC(=O)[C@@H](NC(=O)[C@H](CCCCN)NC(=O)[C@@H](C)O)C(C)C)cc1)C(C)C [Example 41] (H-[dLac]KV[Cit][PABC][Aib]V[Dil][Dolaproine]-Doe)
1.86
CC[C@H](C)[C@@H]([C@@H](CC(=O)N1CCC[C@H]1[C@H](OC)[C@@H](C)C(=O)N[C@@H](Cc1ccccc1)c1nccs1)OC)N(C)C(=O)[C@@H](NC(=O)C(C)(C)NC(=O)OCc1ccc(NC(=O)[C@H](CCCNC(N)=O)NC(=O)[C@@H](NC(=O)[C@@H](N)CCCCN)C(C)C)cc1)C(C)C [Example 33] (H-KV[Cit][PABC][Aib]V[Dil][Dolaproine]-Doe)
1.53
CC[C@H](C)[C@@H]([C@@H](CC(=O)N1CCC[C@H]1[C@H](OC)[C@@H](C)C(=O)N[C@@H](Cc1ccccc1)c1nccs1)OC)N(C)C(=O)[C@@H](NC(=O)C(C)(C)NC(=O)OCc1ccc(NC(=O)[C@H](CCCNC(N)=O)NC(=O)[C@@H](NC(=O)[C@H](CCCCN)NS(C)(=O)=O)C(C)C)cc1)C(C)C [Example 44] (Ms-KV[Cit][PABC][Aib]V[Dil][Dolaproine]-Doe)
1.50
CC[C@H](C)[C@@H]([C@@H](CC(=O)N1CCC[C@H]1[C@H](OC)[C@@H](C)C(=O)N[C@@H](Cc1ccccc1)c1nccs1)OC)N(C)C(=O)[C@@H](NC(=O)C(C)(C)NC(=O)OCc1ccc(NC(=O)[C@H](CCCNC(N)=O)NC(=O)[C@@H](NC(=O)[C@H](CCCCN)NS(=O)(=O)c2ccccc2)C(C)C)cc1)C(C)C [Example 45] (Benzenesulfonyl-KV[Cit][PABC][Aib]V[Dil][Dolaproine]-Doe)
0.66

Problem: Please report the measured DAR for CC[C@H](C)[C@@H]([C@@H](CC(=O)N1CCC[C@H]1[C@H](OC)[C@@H](C)C(=O)N[C@@H](Cc1ccccc1)c1nccs1)OC)N(C)C(=O)[C@@H](NC(=O)C(C)(C)NC(=O)OCc1ccc(NC(=O)[C@H](CCCNC(N)=O)NC(=O)[C@@H](NC(=O)[C@H](COCCOCCOCCOCCOCCOCCN)NC(C)=O)C(C)C)cc1)C(C)C [Example 48] (Ac-S(X1)V[Cit][PABC][Aib]V[Dil][Dolaproine]-Doe)
Solution: 1.94
